Target: T1, interleukin 18 binding protein (IL-18BP) (UniProt O95998 31-194)
T1 sequence (looked up): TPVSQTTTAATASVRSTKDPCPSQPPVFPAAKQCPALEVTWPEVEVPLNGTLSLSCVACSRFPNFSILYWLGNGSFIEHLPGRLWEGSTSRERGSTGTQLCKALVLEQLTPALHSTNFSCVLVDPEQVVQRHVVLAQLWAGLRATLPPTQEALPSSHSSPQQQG
Assay: cell-based or functional assay
Listed below: Ratio (-BP/+BP), DF-100,000 values for each entry.

{"columns": ["Binder", "Ratio (-BP/+BP), DF-100,000"],
 "data": [
  ["IL-18 variant K53Y, S55Y, Q56H (ligand) YFGKLESKLSVIRNLNDQVLFIDQGNRPLFEDMTDSDMRDNAPRTIFIISMYYDYHPRGMAVTISVKSEKISTLSSENKIISFKEMNPPDNIKDTKSDIIFFQRSVPGHDNKMQFESSSYEGYFLASEKERDLFKLILKKEDELGDRSIMFTVQNED", 0.76],
  ["IL-18 variant T34E, S36P, D40A, N41G, K53T, S55R (ligand) YFGKLESKLSVIRNLNDQVLFIDQGNRPLFEDMEDPDMRAGAPRTIFIISMYTDRQPRGMAVTISVKSEKISTLSSENKIISFKEMNPPDNIKDTKSDIIFFQRSVPGHDNKMQFESSSYEGYFLASEKERDLFKLILKKEDELGDRSIMFTVQNED", 1.01],
  ["IL-18 variant T34M, S36T, D37E, D40T, N41M, K53T, S55W (ligand) YFGKLESKLSVIRNLNDQVLFIDQGNRPLFEDMMDTEMRTMAPRTIFIISMYTDWQPRGMAVTISVKSEKISTLSSENKIISFKEMNPPDNIKDTKSDIIFFQRSVPGHDNKMQFESSSYEGYFLASEKERDLFKLILKKEDELGDRSIMFTVQNED", 1.79]
]}
